Listed below: melting point values for each entry.

# annotated cases, reported melting point shown
[[record]]
compound = "CCOC(=O)Cn1c(=O)c2ccccc2n(Cc2ccc(Cl)cc2)c1=O"
result = "138 to 139 °C"

[[record]]
compound = "Cc1cccc2oc(C(O)[C@H](C)NC(=O)OCc3ccccc3)nc12 (stereo partly specified)"
result = "98 °C"

[[record]]
compound = "Cc1nn(C)c(C)c1-c1cccc(-n2c(N)nc3ccccc32)c1"
result = "198 to 200 °C"


-- ask Given O=S(=O)(c1ccc(Br)s1)N(CCO)CCO , respond with its melting point.
-- reply 70 °C

-- ask Given Cc1csc(N)c1C(=O)c1ccc(Cl)cc1 , respond with its melting point.
-- reply 148 to 150 °C

-- ask Given COc1cc(C(=O)c2nc(C(=O)O)c3ccccn23)ccc1N , respond with its melting point.
-- reply 226 °C

-- ask Given CN1CCC(C2(O)c3ccc(F)cc3Sc3ccc(F)cc32)CC1 (stereo unspecified) , respond with its melting point.
-- reply 207 to 209 °C

-- ask Given Cc1ncc([N+](=O)[O-])cc1Nc1nccc(-c2ccccc2)n1 , respond with its melting point.
-- reply 133 °C

-- ask Given Cc1cc(C)cc(-c2nc(NC(=O)c3ccccc3)sc2-c2ccncc2)c1 , respond with its melting point.
-- reply 285 to 286 °C

-- ask Given N#Cc1ccc2oc3c(c(=O)c2c1)CCCC3 , respond with its melting point.
-- reply 198 to 200 °C

-- ask Given CCCCc1nc2c(C(F)(F)F)cccc2c(O)c1C(=O)OCC , respond with its melting point.
-- reply 68 to 69 °C

-- ask Given COc1cc2ncc(C#N)c(Sc3cccc(Br)c3)c2cc1OC , respond with its melting point.
-- reply 173 to 175 °C

-- ask Given FC(F)(F)c1cccc2c(-c3ccccc3)c(Oc3ccccc3)cnc12 , respond with its melting point.
-- reply 153 to 155 °C

-- ask Given O=CCCNC(=O)c1ccc[nH]1 , respond with its melting point.
-- reply 88 to 90 °C

-- ask Given CN1C(=O)CC[C@]2(C)c3ccc(-c4cccnc4)cc3CC[C@@H]12 , respond with its melting point.
-- reply 135 °C

-- ask Given CN(CCO)c1ccncc1 , respond with its melting point.
-- reply 90 to 91 °C

-- ask Given Cc1cc(C)cc(-c2cc(C(=O)NCCCCCCCc3ccccc3)cc(-c3cc(C)cc(C)c3)c2OCCCC(=O)O)c1 , respond with its melting point.
-- reply 64 to 66 °C

-- ask Given O=C(/C=C/C=C(c1ccccc1)c1ccccc1)Oc1ccc([N+](=O)[O-])cc1 , respond with its melting point.
-- reply 113 to 115 °C

-- ask Given C[C@@H](S[C@H]1CO[C@H](/C=C/c2cccnc2)OC1)[C@](O)(Cn1cncn1)c1ccc(F)cc1F , respond with its melting point.
-- reply 118 to 125 °C

-- ask Given CS(=O)c1cccc2c3c(n(Cc4ccc(Cl)cc4)c12)C(CC(=O)O)CCC3 (stereo unspecified) , respond with its melting point.
-- reply 119 to 120 °C

-- ask Given CCc1ccc(N2CCCN(c3cc[nH]c(=S)c3C#N)CC2)cc1 , respond with its melting point.
-- reply 226 to 229 °C

----------
Listed below: melting point values for each entry.

-- ask Given CCCCOC(=O)c1cn2ccnc2s1 , respond with its melting point.
-- reply 84 to 86 °C

-- ask Given CCCOc1ccc(-c2nc3n(c2-c2ccncc2)CCC3)cc1 , respond with its melting point.
-- reply 148 to 150 °C

-- ask Given Cc1cc(Cl)cc(NC(=O)Cc2ccc(OC3(C(=O)O)CCC(C)C3)cc2)c1 (stereo not given) , respond with its melting point.
-- reply 164 to 166 °C
